- System: INSTI-resistant HIV-1 mutants (HXB2)
- EXPERIMENT: microbe, parasite or virus in culture
- Assay type: cell-based
- TEST CONTEXT: Human immunodeficiency virus 1, HXB2, IN mutant G140S/Q148R
Measured EC50, listed per entry for reference.
ASSAY METRIC: EC50 (nM)

INSERT INTO measurements (item_smiles, assay_metric, quantitative_readout) VALUES
  ('C[C@@H]1CCO[C@H]2Cn3cc(C(=O)NCc4ccc(F)cc4F)c(=O)c(O)c3C(=O)N12', 'EC50', 6.5),
  ('O=C(NCc1c(F)cc(F)cc1F)c1cn2c(c(O)c1=O)C(=O)N1[C@H]3CC[C@H](C3)O[C@@H]1C2', 'EC50', 3.1),
  ('O=C1Nc2ccc(Cl)cc2[C@@](C#CC2CC2)(C(F)(F)F)O1', 'EC50', 1.5),
  ('Cc1nnc(C(=O)NC(C)(C)c2nc(C(=O)NCc3ccc(F)cc3)c(O)c(=O)n2C)o1', 'EC50', 2460);

* * *

- EXPERIMENT: in vitro
- TEST CONTEXT: human
ASSAY METRIC: CC50

INSERT INTO assay_data (compound, result) VALUES
  ('Nc1nc2c(ncn2[C@@H]2O[C@H](CO)[C@@H](O)[C@H]2F)c(=O)[nH]1 [2''-FDG, 2′-fluoro-2′-deoxyguanosine]', '> 100 µM');

* * *

- EXPERIMENT: in vitro
- TEST CONTEXT: human, CC50 in Primary Human Hepatocytes, Donor 2
ASSAY METRIC: CC50

INSERT INTO measurements (compound, result) VALUES
  ('COc1ccc(C[C@H](N)C(=O)N[C@H]2[C@@H](O)[C@H](n3cnc4c(N(C)C)ncnc43)O[C@@H]2CO)cc1 [Puromycin]', '0.83 µM'),
  ('O=C(NCc1c(F)cc(F)cc1F)c1cn2c(c(O)c1=O)C(=O)N1[C@H]3CC[C@H](C3)O[C@@H]1C2 [BIC, Bictegravir]', '> 100 µM'),
  ('C[C@@H]1CCO[C@H]2Cn3cc(C(=O)NCc4ccc(F)cc4F)c(=O)c(O)c3C(=O)N12 [DTG, Dolutegravir]', '> 100 µM');

* * *

- Test system: HIV-1 BaL
- TEST CONTEXT: primary CD4+ T-cells, 35 days, drug at tissue culture equivalent clinical Cmin (FTC 160 × EC50)
Measured Frequency of Viral Breakthrough with RAMs, listed per entry for reference.
ASSAY METRIC: Frequency of Viral Breakthrough with RAMs (%)

INSERT INTO measurements (item_smiles, unit_label, quantitative_readout) VALUES
  ('COC(=O)N[C@H](C(=O)N[C@@H](Cc1ccccc1)[C@@H](O)CN(Cc1ccc(-c2ccccn2)cc1)NC(=O)[C@@H](NC(=O)OC)C(C)(C)C)C(C)(C)C', '%', 0),
  ('O=C1Nc2ccc(Cl)cc2[C@@](C#CC2CC2)(C(F)(F)F)O1', '%', 17),
  ('Cc1nnc(C(=O)NC(C)(C)c2nc(C(=O)NCc3ccc(F)cc3)c(O)c(=O)n2C)o1', '%', 58),
  ('Cc1cc(/C=C/C#N)cc(C)c1Nc1ccnc(Nc2ccc(C#N)cc2)n1', '%', 25),
  ('COc1cc2c(cc1Cc1cccc(Cl)c1F)c(=O)c(C(=O)O)cn2[C@H](CO)C(C)C', '%', 54),
  ('O=C(NCc1c(F)cc(F)cc1F)c1cn2c(c(O)c1=O)C(=O)N1[C@H]3CC[C@H](C3)O[C@@H]1C2', '%', 0),
  ('Nc1nc(=O)n([C@@H]2CS[C@H](CO)O2)cc1F', '%', 58),
  ('C[C@@H]1CCO[C@H]2Cn3cc(C(=O)NCc4ccc(F)cc4F)c(=O)c(O)c3C(=O)N12', '%', 0);
